Molecular target: MEK1 (Homo sapiens, UniProt Q02750)
Sequence (Q02750 whole entry): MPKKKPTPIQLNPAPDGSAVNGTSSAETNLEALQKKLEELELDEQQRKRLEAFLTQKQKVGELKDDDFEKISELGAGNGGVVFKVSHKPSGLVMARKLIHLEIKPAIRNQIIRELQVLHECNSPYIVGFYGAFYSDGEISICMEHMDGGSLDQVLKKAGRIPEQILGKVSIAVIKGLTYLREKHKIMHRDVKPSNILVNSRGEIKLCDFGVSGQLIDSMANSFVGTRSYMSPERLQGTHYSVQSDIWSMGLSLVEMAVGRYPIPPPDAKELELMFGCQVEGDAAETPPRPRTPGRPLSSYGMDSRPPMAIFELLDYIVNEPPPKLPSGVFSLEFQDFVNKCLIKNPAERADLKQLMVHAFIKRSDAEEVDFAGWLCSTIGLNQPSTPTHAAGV
Experiment: In vitro MEK1 inhibition assay (ADP-Glo kinase assay)
Settings: recombinant GST-MEK1, GST-ERK2, 10 µM ATP, mean value ± SD; read-out: MEK1 inhibitory activity IC50 value
pIC50: −log10 of the molar value.
measured-parameter: pIC50

>  <compound>
COC(=O)C1(C)CCCC2(C)c3ccc(C(C)C)cc3-c3c(c4cc(Cl)ccc4n3CCN3CCNCC3)C12 (stereo not shown) [Compound 10j]

>  <measured-target>
MEK1 (Homo sapiens, UniProt Q02750)

>  <measured-parameter>
pIC50

>  <reported-result>
5.25

$$$$

[P] COC(=O)C1(C)CCCC2(C)c3ccc(C(C)C)cc3-c3c(c4cc(OC)ccc4n3CCN3CCNCC3)C12 (stereo not shown) [Compound 10e]
[Q] COC(=O)C1(C)CCCC2(C)c3ccc(C(C)C)cc3-c3c(c4cc(C)ccc4n3CCN3CCNCC3)C12 (stereo not shown) [Compound 10a]
[R] CCOc1ccc2c(c1)c1c(n2CCN2CCNCC2)-c2cc(C(C)C)ccc2C2(C)CCCC(C)(C(=O)OC)C12 (stereo not shown) [Compound 10g]
Q: Place the items in sequence of falling pIC50. Write the labels, ordered according to the request.
Ans: R, P, Q

Cited source: paper PMC6720511
